molecular target: Glutamate receptor ionotropic, NMDA 2B (Homo sapiens, UniProt Q05586+Q13224); experiment: Binding affinity to NMDA NR2B receptor
Sequence (Q13224 whole entry, one chain of several): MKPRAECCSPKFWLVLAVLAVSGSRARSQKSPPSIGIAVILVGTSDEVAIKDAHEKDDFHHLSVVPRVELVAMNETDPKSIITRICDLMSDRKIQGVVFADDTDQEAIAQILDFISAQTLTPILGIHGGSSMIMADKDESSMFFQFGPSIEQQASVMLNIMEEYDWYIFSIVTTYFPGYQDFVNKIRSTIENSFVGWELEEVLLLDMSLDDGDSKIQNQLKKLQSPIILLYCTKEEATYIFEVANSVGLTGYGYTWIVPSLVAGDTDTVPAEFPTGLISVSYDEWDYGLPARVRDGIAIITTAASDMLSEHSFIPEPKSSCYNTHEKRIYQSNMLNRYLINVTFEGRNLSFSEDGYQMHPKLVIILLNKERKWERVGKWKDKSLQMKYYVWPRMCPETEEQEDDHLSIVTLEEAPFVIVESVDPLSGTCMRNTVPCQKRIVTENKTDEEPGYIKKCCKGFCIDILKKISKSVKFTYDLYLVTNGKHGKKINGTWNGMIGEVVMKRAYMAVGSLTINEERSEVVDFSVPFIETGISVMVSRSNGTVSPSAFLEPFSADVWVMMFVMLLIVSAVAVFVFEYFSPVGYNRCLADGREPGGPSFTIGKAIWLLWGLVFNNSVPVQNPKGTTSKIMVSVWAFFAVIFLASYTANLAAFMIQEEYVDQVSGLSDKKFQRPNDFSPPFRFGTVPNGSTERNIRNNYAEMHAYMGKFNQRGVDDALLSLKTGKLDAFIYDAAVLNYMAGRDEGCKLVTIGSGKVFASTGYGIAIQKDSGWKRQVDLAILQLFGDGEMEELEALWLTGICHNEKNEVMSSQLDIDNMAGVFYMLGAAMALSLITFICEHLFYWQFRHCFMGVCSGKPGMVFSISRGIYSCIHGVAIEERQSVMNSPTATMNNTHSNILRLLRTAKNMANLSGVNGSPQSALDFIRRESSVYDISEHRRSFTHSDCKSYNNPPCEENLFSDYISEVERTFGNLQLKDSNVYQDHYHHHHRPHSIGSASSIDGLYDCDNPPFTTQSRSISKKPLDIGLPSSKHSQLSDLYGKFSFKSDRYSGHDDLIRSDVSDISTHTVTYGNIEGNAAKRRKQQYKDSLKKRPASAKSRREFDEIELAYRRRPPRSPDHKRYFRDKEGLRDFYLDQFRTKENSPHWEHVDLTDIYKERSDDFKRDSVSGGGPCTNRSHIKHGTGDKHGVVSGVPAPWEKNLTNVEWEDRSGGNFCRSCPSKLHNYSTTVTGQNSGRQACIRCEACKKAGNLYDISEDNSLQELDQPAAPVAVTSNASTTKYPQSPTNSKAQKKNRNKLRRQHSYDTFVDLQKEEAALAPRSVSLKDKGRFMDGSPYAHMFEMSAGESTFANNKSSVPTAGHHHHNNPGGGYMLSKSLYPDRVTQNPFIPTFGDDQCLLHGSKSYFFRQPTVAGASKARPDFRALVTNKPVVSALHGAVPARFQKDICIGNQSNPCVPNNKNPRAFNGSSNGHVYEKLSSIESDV
readout.name: Ki (µM)

Completed entries (count: 2):
In [3]: df
Out[3]:
                                   compound                                    target  readout_name  experimental_result
0  FC(F)(F)Oc1ccc(C2=NC(c3cc(Cl)cc(Cl)c3)CN2)cc1Cl (configuration not stated)  Glutamate receptor ionotropic, NMDA 2B (Homo sapiens, UniProt Q05586+Q13224)            Ki                0.223
1  COc1ccccc1C1CN=C(c2ccc(OC(F)(F)F)c(Cl)c2)N1 (configuration not stated)  Glutamate receptor ionotropic, NMDA 2B (Homo sapiens, UniProt Q05586+Q13224)            Ki                0.075

I: COc1ccccc1CN1Cc2cc(OC(F)(F)F)ccc2C1=N
II: FC(F)(F)Oc1ccc(C2=NCC(c3ccccc3C(F)(F)F)N2)cc1Cl (configuration not stated)
Lab log: flag the item ( I or II ) with the smaller Ki figure. Please respond with the label that marks your chosen entry.
I
(I: 0.0036 µM, II: 0.353 µM)

1: N=C1c2ccc(OC(F)(F)F)cc2CN1Cc1cccc(Cl)c1
2: N=C1c2ccc(OC(F)(F)F)cc2CN1Cc1cccc2ccoc12
Lab log: flag the item ( 1 or 2 ) with the smaller Ki figure. Please respond with the label that marks your chosen entry.
2
